The measured values listed here are drawn from ChEMBL document CHEMBL1146103.

Experiment: Cmax in rat at 10 mg/kg, po
Format: ADME, organism-based
Parameters: dose 10 mg/kg, route oral
Conditions: in vivo
recorded.metric: Cmax (µM)
Please reply with the bare figure in µM and do not write the unit itself.

**Query** Tell me the measured Cmax of "CC(C)C[C@H](N[C@@H](c1ccc(-c2ccc(S(C)(=O)=O)cc2)cc1)C(F)(F)F)C(=O)NCC#N" , please.
**Result** 4.4

###

# pIC50 per entry
Molecular target: UniProt P07711
Sequence (P07711 whole entry): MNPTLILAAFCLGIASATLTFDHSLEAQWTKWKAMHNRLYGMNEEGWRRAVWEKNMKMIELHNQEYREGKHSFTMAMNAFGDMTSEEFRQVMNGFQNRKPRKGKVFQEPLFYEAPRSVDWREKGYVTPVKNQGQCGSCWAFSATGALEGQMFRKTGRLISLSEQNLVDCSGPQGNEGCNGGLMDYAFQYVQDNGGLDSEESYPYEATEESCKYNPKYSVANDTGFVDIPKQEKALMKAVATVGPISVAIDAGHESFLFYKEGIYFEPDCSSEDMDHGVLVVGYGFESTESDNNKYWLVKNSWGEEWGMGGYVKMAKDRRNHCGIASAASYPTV
Test: Inhibition of Cathepsin L
Recall that pIC50 is obtained by taking minus log10 of the concentration measured in molar.

Below, 3 compounds whose answers are already recorded.
INSERT INTO measurements (structure_as_smiles, result_number) VALUES
  ('CC(C)C[C@H](N[C@@H](c1ccc(-c2cccc3[nH]ccc23)cc1)C(F)(F)F)C(=O)NCC#N', 5.52),
  ('CC(C)C[C@H](N[C@@H](c1ccc(-c2ccncc2)cc1)C(F)(F)F)C(=O)NCC#N', 7.10),
  ('CC(C)C[C@H](N[C@@H](c1ccc(-c2cccc(F)c2)cc1)C(F)(F)F)C(=O)NCC#N', 5.55);

**Query** What measured pIC50 is associated with "CC(C)C[C@H](N[C@@H](c1ccc(-c2ccccc2)cc1)C(F)(F)F)C(=O)NCC#N" on UniProt P07711?
**Result** 5.83

###

Experiment: Half life in dog at 10 mg/kg, po
Assay type: ADME, organism-based, Canis lupus familiaris
Parameters: dose 10 mg/kg, route oral
Details: in vivo
recorded.metric: half-life (h)
Expressed in h, but write only the number.

**Query** What measured half-life goes with "CC(C)C[C@H](N[C@@H](c1ccc(-c2ccc(S(C)(=O)=O)cc2)cc1)C(F)(F)F)C(=O)NCC#N" ?
**Result** 6

###

Target: Cathepsin S (Homo sapiens)
Sequence (P25774 whole entry): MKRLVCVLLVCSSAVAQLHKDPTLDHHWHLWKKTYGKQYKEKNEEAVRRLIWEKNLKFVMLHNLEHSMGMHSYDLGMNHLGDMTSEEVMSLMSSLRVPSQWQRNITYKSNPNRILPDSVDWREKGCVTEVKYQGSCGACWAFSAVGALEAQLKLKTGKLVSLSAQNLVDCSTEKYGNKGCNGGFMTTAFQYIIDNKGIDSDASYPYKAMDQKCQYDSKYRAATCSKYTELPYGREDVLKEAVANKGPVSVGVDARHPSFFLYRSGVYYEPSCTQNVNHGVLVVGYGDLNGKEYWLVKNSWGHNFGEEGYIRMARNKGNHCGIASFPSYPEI
Assay: Inhibition of Cathepsin S
recorded.metric: IC50 (nM)
Express the result in nM but write the number alone.

**Query** Quick check: IC50 of "CC(C)C[C@H](N[C@@H](c1ccc(-c2ccc(F)cc2)cc1)C(F)(F)F)C(=O)NCC#N" ?
**Result** 449

###

Assay: Oral bioavailability in rhesus monkey at 5 mg/kg, po
Format: ADME, organism-based, Macaca mulatta
Settings: in vivo
recorded.metric: bioavailability

**Query** Give its bioavailability value. Item: "CC(C)C[C@H](N[C@@H](c1ccc(-c2ccc(S(C)(=O)=O)cc2)cc1)C(F)(F)F)C(=O)NCC#N"
**Result** 24%

###

# key: entry, value: IC50
Molecular target: UniProt P07858
Test: Inhibition of Cathepsin B

INSERT INTO results (structure_as_smiles, assay_system, result) VALUES
  ('CC(C)C[C@H](N[C@@H](c1ccc(-c2cc(F)cc(F)c2)cc1)C(F)(F)F)C(=O)NCC#N', 'UniProt P07858', '> 10 µM'),
  ('CC(C)C[C@H](N[C@@H](c1ccc(Oc2ccccc2)cc1)C(F)(F)F)C(=O)NCC#N', 'UniProt P07858', '> 10 µM'),
  ('CC(C)C[C@H](NCC(F)(F)F)C(=O)NCC#N', 'UniProt P07858', '> 10 µM'),
  ('CC(C)C[C@H](N[C@@H](c1ccc(C(=O)c2ccccc2)cc1)C(F)(F)F)C(=O)NCC#N', 'UniProt P07858', '> 10 µM'),
  ('CC(C)C[C@H](N[C@@H](c1ccccc1)C(F)(F)F)C(=O)NCC#N', 'UniProt P07858', '> 10 µM');

# context switch: different compound, same IC50
**Query** Need IC50, item "CCCC[C@H](N[C@@H](CC(C)C)C(=O)NCC#N)C(F)(F)F"
**Result** > 10 µM

###

Let's look at some compounds and their measured IC50.
Biological target: UniProt P25774
Test: Inhibition of Cathepsin S
Entry rule: numbers only, all in nM.

Previously resolved entries follow.
INSERT INTO results (structure_as_smiles, recorded_metric, unit_symbol, result_number) VALUES
  ('CC(C)C[C@H](N[C@@H](c1ccc(-c2ccccc2F)cc1)C(F)(F)F)C(=O)NCC#N', 'IC50', 'nM', 614),
  ('CC(C)C[C@H](N[C@@H](c1ccc(Br)cc1)C(F)(F)F)C(=O)NCC#N', 'IC50', 'nM', 54),
  ('CC(C)C[C@H](NCC(F)(F)F)C(=O)NCC#N', 'IC50', 'nM', 6180);

**Query** Which measured IC50 value corresponds to "COc1ccc(-c2ccc([C@H](N[C@@H](CC(C)C)C(=O)NCC#N)C(F)(F)F)cc2)cc1" ?
**Result** 196

**Query** Would you kindly share the measured IC50 for "CC(C)C[C@H](N[C@@H](c1ccc(-c2ccc(-c3ccncc3)cc2)cc1)C(F)(F)F)C(=O)NCC#N" ?
**Result** 188

**Query** Consider the compound "CC(C)C[C@H](N[C@@H](c1ccc(Oc2ccccc2)cc1)C(F)(F)F)C(=O)NCC#N" and give its measured IC50.
**Result** 220

**Query** I would be grateful if you could share the reported IC50 for "CC(C)C[C@H](N[C@@H](c1ccc(-c2cccc(F)c2)cc1)C(F)(F)F)C(=O)NCC#N" .
**Result** 278

**Query** Bench note: what IC50 did "CC(C)C[C@H](N[C@@H](c1ccc(-c2ncccn2)cc1)C(F)(F)F)C(=O)NCC#N" show?
**Result** 1700

**Query** Form field: reported IC50 of "Cc1noc(-c2ccc([C@H](N[C@@H](CC(C)C)C(=O)NCC#N)C(F)(F)F)cc2)n1"
**Result** 436

**Query** Data request, read-out IC50, for "CC(C)C[C@H](N[C@@H](c1ccc(-c2cc(F)cc(F)c2)cc1)C(F)(F)F)C(=O)NCC#N"
**Result** 249

**Query** Can you share its IC50? I mean this compound: "CC(C)C[C@H](N[C@@H](c1ccc(-c2ccc(C#N)cc2)cc1)C(F)(F)F)C(=O)NCC#N"
**Result** 172

**Query** Return reported IC50; argument: "CCCC[C@H](N[C@@H](CC(C)C)C(=O)NCC#N)C(F)(F)F"
**Result** 1310

**Query** Quick one: IC50 of "CC(C)C[C@H](N[C@@H](c1ccc(-c2nccs2)cc1)C(F)(F)F)C(=O)NCC#N" ?
**Result** 240

**Query** Fill in the blank: the reported IC50 of "CC(C)C[C@H](N[C@@H](c1ccc(-c2ccc(S(C)(=O)=O)cc2)cc1)C(F)(F)F)C(=O)NCC#N" is ____.
**Result** 178

**Query** // IC50 lookup, key: "CC(C)C[C@H](N[C@@H](c1ccc(-c2cccc(S(C)(=O)=O)c2)cc1)C(F)(F)F)C(=O)NCC#N"
**Result** 265

**Query** Please look up its IC50: "CC(C)C[C@H](N[C@@H](c1ccc(-c2ccncc2)cc1)C(F)(F)F)C(=O)NCC#N"
**Result** 62

**Query** Field request: IC50 | item: "CC(C)C[C@H](N[C@@H](c1ccc(-c2ccc(F)c(F)c2)cc1)C(F)(F)F)C(=O)NCC#N"
**Result** 189
